This collection of values is drawn from paper PMC12481249.

- Test system: MCF-7 Br Ca cell line
- Assay Name: MTT cytotoxicity (antiproliferative) assay
- Test Conditions: Homo sapiens, MCF7, read-out: IC50 MCF-7, MTT, MCF-7 Br Ca cell line, mean ± SD (n = 3)
In this section we review reported IC50 values for a set of compounds.
Assay Readout: IC50 (µM)

{"Smiles Data": "COc1cc(/C=C(\\NC(=O)c2ccccc2)C(=O)NNC(=O)COc2cccc3ccccc23)cc(OC)c1OC", "Assay Readout": "IC50", "Unit Label": "µM", "Readout Number": 16.9}
{"Smiles Data": "COc1ccc(/C=C(\\NC(=O)c2ccccc2)C(=O)NNC(=O)COc2cccc3ccccc23)cc1OC", "Assay Readout": "IC50", "Unit Label": "µM", "Readout Number": 28.7}
{"Smiles Data": "O=C(COc1cccc2ccccc12)NNC(=O)/C(=C/c1ccc(Cl)cc1)NC(=O)c1ccccc1", "Assay Readout": "IC50", "Unit Label": "µM", "Readout Number": 51.8}
{"Smiles Data": "COc1ccc(/C=C(\\NC(=O)c2ccccc2)C(=O)NNC(=O)COc2cccc3ccccc23)c(OC)c1OC", "Assay Readout": "IC50", "Unit Label": "µM", "Readout Number": 25.9}

###

- Test system: MCF-7 Br Ca cell line
- Assay Name: MTT cytotoxicity (antiproliferative) assay
- Test Conditions: Homo sapiens, MCF7, read-out: IC50 MCF-7, MTT, MCF-7 Br Ca cell line, mean ± SD (n = 3)
In this section we review reported IC50 values for a set of compounds.
Assay Readout: IC50 (µM)

{"Compound": "COc1ccc(C(=O)N/C(=C\\c2ccco2)C(=O)NNC(=O)COc2cccc3ccccc23)cc1 [6b]", "Unit Label": "µM", "Readout Number": 11.5}
{"Compound": "COc1ccc(/C=C(\\NC(=O)c2ccccc2)C(=O)NNC(=O)COc2cccc3ccccc23)cc1 [5d]", "Unit Label": "µM", "Readout Number": 3.03}
{"Compound": "O=C(COc1cccc2ccccc12)NNC(=O)/C(=C/c1ccco1)NC(=O)c1ccccc1 [6a]", "Unit Label": "µM", "Readout Number": 9.18}
{"Compound": "O=C(COc1cccc2ccccc12)NNC(=O)/C(=C/c1ccc(Br)cc1)NC(=O)c1ccccc1 [5b]", "Unit Label": "µM", "Readout Number": 30.7}
{"Compound": "O=C(COc1cccc2ccccc12)NNC(=O)/C(=C/c1cc(Br)c(O)c(Br)c1)NC(=O)c1ccccc1 [5g]", "Unit Label": "µM", "Readout Number": 18.5}
{"Compound": "COc1ccc(C(=O)N/C(=C\\c2cc(OC)c(OC)c(OC)c2)C(=O)NNC(=O)COc2cccc3ccccc23)cc1 [5j]", "Unit Label": "µM", "Readout Number": 21.2}
